For each entry below, report its logP value.
assay: method code SF, from Hansch, C. & Leo, A. (1987). Log P database [Dataset]. Pomona College Medicinal Chemistry Project.

For the compound "NC(=O)c1cccs1" , give its measured logP value.
0.52

For the compound "CCOC(=O)C(=Cc1ccc(Cl)cc1Cl)C(=O)OCC" , give its measured logP value.
3.49

For the compound COP(N)(=O)Oc1cc(Cl)c(Cl)cc1Cl (configuration not stated) , give its measured logP value.
2.53

For the compound "CCOC(=O)c1ccncc1" , give its measured logP value.
1.43

For the compound "CN(C)Cc1cccs1" , give its measured logP value.
1.67

For the compound "FC(F)Cl" , give its measured logP value.
1.08

For the compound C1OC1CN1CCN(CC2CO2)CC1 (configuration not stated) , give its measured logP value.
-0.84

For the compound "O=C1C=CC(=O)N1" , give its measured logP value.
-0.29

For the compound "CC(=O)NO" , give its measured logP value.
-1.59

For the compound "Nc1ccc2cc3ccccc3nc2c1" , give its measured logP value.
2.19

For the compound CC(O)CCC(=O)c1ccoc1 (configuration not stated) , give its measured logP value.
0.84

For the compound "CCOC(=O)C(=Cc1ccccc1[N+](=O)[O-])C(=O)OCC" , give its measured logP value.
2.54

For the compound "CCOC(=O)C(=Cc1ccc(Cl)cc1Cl)C(C)=O" , give its measured logP value.
3.67

For the compound "Nc1cc(C(F)(F)F)cc(C(F)(F)F)c1" , give its measured logP value.
3.57

For the compound "CS(=O)(=O)N(c1ccccc1)S(C)(=O)=O" , give its measured logP value.
0.62

For the compound "CCC1(CC)OC(=O)c2ccccc21" , give its measured logP value.
2.69

For the compound "Cc1ccc(C(=O)c2ccncc2)cc1" , give its measured logP value.
2.51

For the compound "CC1=Nc2ccc([N+](=O)[O-])cc2S(=O)(=O)N1" , give its measured logP value.
0.65

For the compound "c1ccc2c(c1)CNc1ccccc1C2" , give its measured logP value.
2.9

For the compound "CCOc1ccc(OC(C)=O)cc1" , give its measured logP value.
1.95

For the compound "CC1=Nc2cc(C)ccc2S(=O)(=O)N1" , give its measured logP value.
0.74

For the compound "NC(N)=Nc1ccccc1" , give its measured logP value.
0.53

For the compound "O=Cc1ccc2c(c1)OCO2" , give its measured logP value.
1.05

For the compound "CCOP(=S)(OCC)Oc1ccc(SC)cc1C" , give its measured logP value.
4.16

For the compound "CC1=Nc2cc(Cl)ccc2S(=O)(=O)N1" , give its measured logP value.
1.21

For the compound "N#C/N=N/c1ccccc1" , give its measured logP value.
2.3

For the compound "CCOP(=S)(OCC)Oc1ncn(-c2ccccc2)n1" , give its measured logP value.
3.55

For the compound "COc1cccc(OC)n1" , give its measured logP value.
2.3

For the compound "COc1ccc(C(C)=O)c(O)c1" , give its measured logP value.
1.98

For the compound "O=C(Nc1ccc(Br)cc1)C(F)(F)F" , give its measured logP value.
3.34

For the compound "O=Cc1cccc(Oc2ccccc2)c1" , give its measured logP value.
3.38

For the compound CCC(C)NC(=O)/C(F)=C\c1ccccc1 (configuration not stated) , give its measured logP value.
3.1

For the compound "C=C(C=O)CC" , give its measured logP value.
1.24

For the compound "FC(F)(F)Oc1ccccc1" , give its measured logP value.
3.17

For the compound "CNc1ccccc1[N+](=O)[O-]" , give its measured logP value.
2.18

For the compound "CC1=Nc2ccccc2S(=O)(=O)N1" , give its measured logP value.
0.29

For the compound "CCOC(=O)C(=Cc1ccc(Cl)cc1)C(=O)OCC" , give its measured logP value.
3.96

For the compound "CCOC(C)OCC" , give its measured logP value.
1.49

For the compound "c1ccc2[nH]nnc2c1" , give its measured logP value.
1.33

For the compound "CCCCN(CCCC)C(=O)COc1ccccc1" , give its measured logP value.
3.23

For the compound "c1ccc(CSc2cnn[nH]2)cc1" , give its measured logP value.
2.65

For the compound "CCOC(=O)CON=Cc1ccc(OCC(=O)OCC)c(OC)c1" , give its measured logP value.
1.87

For the compound "NC(=O)c1ccc(C(F)(F)F)cc1" , give its measured logP value.
1.71

For the compound CCCC(=O)OCC(O)CO (configuration not stated) , give its measured logP value.
-0.17

For the compound "CN(C)CCCc1ccco1" , give its measured logP value.
2.08

For the compound "CCOP(=O)(OCC)SCSCC" , give its measured logP value.
2.07

For the compound "COc1cc(C=O)ccc1OCCOC(=O)c1cccc(Cl)c1" , give its measured logP value.
3.67

For the compound "c1cn[nH]c1" , give its measured logP value.
0.13

For the compound "O=C1C(N2CCOCC2)=C(N2CC2)C(=O)C(N2CCOCC2)=C1N1CC1" , give its measured logP value.
0.52

For the compound "CC(=C(C#N)C#N)c1ccccc1" , give its measured logP value.
2.1

For the compound CNP(=O)(OC)Oc1cc(Cl)c(Cl)cc1Cl (configuration not stated) , give its measured logP value.
3.06

For the compound "CC(=O)Oc1cccc(Cl)c1" , give its measured logP value.
2.32

For the compound "O=[N+]([O-])c1ccc2[nH]c(CCc3nc4cc([N+](=O)[O-])ccc4[nH]3)nc2c1" , give its measured logP value.
1.29

For the compound "O=C(c1ccncc1)c1ccc([N+](=O)[O-])cc1" , give its measured logP value.
1.76

For the compound "COc1cc(Cl)cc(Cl)c1" , give its measured logP value.
3.74

For the compound "O=c1[nH]c2ccccc2o1" , give its measured logP value.
1.16

For the compound "CP(C)c1ccccc1" , give its measured logP value.
2.57

For the compound "O=C(O)Cc1c[nH]c2ccccc12" , give its measured logP value.
1.41

For the compound "O=C1C(N2CCN(CCO)CC2)=C(N2CC2)C(=O)C(N2CCN(CCO)CC2)=C1N1CC1" , give its measured logP value.
-0.73

For the compound "CN(C)C(=O)Cc1cccs1" , give its measured logP value.
0.65

For the compound "CN(C)C(=O)Oc1ccccc1[N+](=O)[O-]" , give its measured logP value.
1.35

For the compound "COC(=O)C=Cc1ccccc1" , give its measured logP value.
2.62
